// binding signal lookup, one value per entry
Target: ZFPm3 six-finger zinc finger protein (Sp1C framework) (artificial)
Sequence (chain, as listed by the source): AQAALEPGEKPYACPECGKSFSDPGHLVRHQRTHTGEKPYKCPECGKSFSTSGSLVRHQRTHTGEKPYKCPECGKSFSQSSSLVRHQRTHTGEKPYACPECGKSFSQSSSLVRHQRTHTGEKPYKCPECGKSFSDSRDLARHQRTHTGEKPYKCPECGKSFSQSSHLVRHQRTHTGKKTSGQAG
Experiment: ELISA, 1.9 ug/ml protein, non-target
Details: tags: MBP fusion (pMAL-C2), E. coli; label: 5'-biotin; hairpin
Report the figure in fold over no oligo without appending any unit label.

Record excerpt, results attached:
binder	measured_property	assay_value
GGTTCTACCCCTCCCACCGCGGGTTTTCCCGCGGTGGGAGGGGTAGAACC (dsDNA) [NRI-1]	binding signal	4
GGACCCACCGCGTCCCCTCCGGGTTTTCCCGGAGGGGACGCGGTGGGTCC (dsDNA) [B3c2]	binding signal	3

# evaluate next
Ask: Look up binding signal for this binder: GGGGCAGCCCCCACGGCGCCGGGTTTTCCCGGCGCCGTGGGGGCTGCCCC (dsDNA) [hHD-II]
Result: 3
